Values were extracted from ChEMBL document CHEMBL1131047.

Target: Human immunodeficiency virus type 1 reverse transcriptase (Human immunodeficiency virus 1, UniProt Q72547, Y188L)
Experiment: Inhibitory activity against HIV-1 Y188L reverse transcriptase.
pIC50: −log10 of the molar value.
measurement.type: pIC50

1) CCN1c2ncc(CCc3ccc(N)cc3)cc2C(=O)N(C)c2ccc(Cl)nc21    < 6.00
2) CCN1c2ncc(CCc3ccccn3)cc2C(=O)N(C)c2cccnc21    < 6.00
3) CCN1c2ncc(CCc3nccs3)cc2C(=O)N(C)c2cccnc21    < 6.00
4) CCN1c2ncc(CCc3ccccc3C)cc2C(=O)N(C)c2ccc(Cl)nc21    < 6.00
5) CCN1c2ncc(CCc3ccnc(C)c3)cc2C(=O)N(C)c2cccnc21    < 6.00
6) CCN1c2ncc(CCc3ccncc3)cc2C(=O)N(C)c2ccc(I)nc21    6.37
7) CCN1c2ncc(CCc3ccncc3)cc2C(=O)N(C)c2ccc(F)nc21    6.60
8) CCN1c2ncc(CCc3cccc(F)c3)cc2C(=O)N(C)c2cccnc21    < 6.00
9) CCN1c2ncc(CCc3cccc(NC(N)=O)c3)cc2C(=O)N(C)c2ccc(Cl)nc21    6.64
10) CCN1c2ncc(CCc3ccncc3)cc2C(=O)N(C)c2ccc(C#N)nc21    < 6.00
11) CCN1c2ncc(CCc3ccnc(C(N)=O)c3)cc2C(=O)N(C)c2ccc(Cl)nc21    5.40
12) CCN1c2ncc(CCc3ccc(C)cc3)cc2C(=O)N(C)c2ccc(Cl)nc21    < 6.00
13) CCN1c2ncc(CCc3cccc(N=[N+]=[N-])c3)cc2C(=O)N(C)c2ccc(Cl)nc21    < 6.00
14) CCN1c2ncc(CCc3cccnc3)cc2C(=O)N(C)c2cccnc21    < 6.00
15) CCN1c2ncc(CCc3ccccc3N)cc2C(=O)N(C)c2cccnc21    < 6.00
16) CCN1c2ncc(CCc3ccnc(C)c3)cc2C(=O)N(C)c2ccc(Cl)nc21    < 6.00
17) CCN1c2ncc(CCc3ccnc(C(=O)O)c3)cc2C(=O)N(C)c2ccc(Cl)nc21    < 6.00
18) CCN1c2ncc(CCc3ccc(NS(C)(=O)=O)cc3)cc2C(=O)N(C)c2ccc(Cl)nc21    < 6.00
19) CCN1c2ncc(CCc3ccc4ccccc4c3)cc2C(=O)N(C)c2ccc(Cl)nc21    < 6.00
20) CCN1c2ncc(CCc3ccncc3)cc2C(=O)N(C)c2cccnc21    < 6.00
21) CCN1c2ncc(CCc3cccc(NS(C)(=O)=O)c3)cc2C(=O)N(C)c2ccc(Cl)nc21    < 6.00
22) CCN1c2ncc(CCc3ccccc3C)cc2C(=O)N(C)c2cccnc21    < 6.00
23) CCN1c2ncc(CCc3ccc4ccccc4c3)cc2C(=O)N(C)c2ccc(F)nc21    < 6.00
24) CCN1c2ncc(CCc3ccc(N)cc3)cc2C(=O)N(C)c2cccnc21    < 6.00
25) CCN1c2ncc(CCc3ccnc(C(=O)OC)c3)cc2C(=O)N(C)c2ccc(Cl)nc21    5.22
26) CCN1c2ncc(CCc3cccc(C)c3)cc2C(=O)N(C)c2ccc(Cl)nc21    < 6.00
27) CCN1c2ncc(CCc3cccc(N)c3)cc2C(=O)N(C)c2ccc(Cl)nc21    6.60
28) CCN1c2ncc(CCc3cccc(C)c3)cc2C(=O)N(C)c2cccnc21    < 6.00
29) CCN1c2ncc(CCc3ccnc(CO)c3)cc2C(=O)N(C)c2ccc(Cl)nc21    < 6.00
30) CCN1c2ncc(CCc3ccc(C)cc3)cc2C(=O)N(C)c2cccnc21    < 6.00
31) CCN1c2ncc(CCc3ccccc3)cc2C(=O)N(C)c2ccc(C3=CCC=N3)nc21    5.89
32) CCN1c2ncc(CCc3cncnc3)cc2C(=O)N(C)c2cccnc21    < 6.00
33) CCN1c2ncc(CCc3cccc(N)c3)cc2C(=O)N(C)c2cccnc21    < 6.00
34) CCN1c2ncc(CCc3ccc4ccccc4c3)cc2C(=O)N(C)c2cccnc21    < 6.00
